test system: L1210 leukemia ip in BDF1 mice, survival T/C; test: NCI In Vivo Anticancer Drug Screen. Data for tumor model L1210 Leukemia (intraperitoneal) in B6D2F1 (BDF1) mice; conditions: endpoint: mean survival time; dose: 200.0 mg/kg/injection; schedule: Q04DX003 (ip); vehicle: saline; higher = longer survival
Inconclusive results and toxic doses are left out.
As shown below, each of these compounds has a reported T/C value.
Reported property: T/C

[[record]]
compound = "CC1=CC(=O)OC(C)(C)C1"
reported_property = "T/C"
endpoint_result = "96 % of control"

[[record]]
compound = "CCOC(=O)NCc1ccc(Cl)c(C(=O)O)c1"
reported_property = "T/C"
endpoint_result = "101 % of control"

[[record]]
compound = "C#CC1(OC(O)C(Cl)(Cl)Cl)CCCCC1 (centres undefined)"
reported_property = "T/C"
endpoint_result = "106 % of control"

[[record]]
compound = "C[n+]1ccccc1C(=O)O"
reported_property = "T/C"
endpoint_result = "95 % of control"

[[record]]
compound = "N#Cc1cnccn1"
reported_property = "T/C"
endpoint_result = "100 % of control"

[[record]]
compound = "O=C1NC(=O)C(CO)(CO)N1"
reported_property = "T/C"
endpoint_result = "103 % of control"

[[record]]
compound = "O=C(Nc1ccc([N+](=O)[O-])cc1Cl)N(CC(O)c1ccccc1)C1CCCCC1 (centres undefined)"
reported_property = "T/C"
endpoint_result = "102 % of control"

[[record]]
compound = "OC1C2CCN(CC2)C1CNC12CC3CC(CC(C3)C1)C2 (centres undefined)"
reported_property = "T/C"
endpoint_result = "96 % of control"

[[record]]
compound = "CC(=O)NN(CCN(NC(C)=O)C(C)=O)C(C)=O"
reported_property = "T/C"
endpoint_result = "95 % of control"

[[record]]
compound = "COc1cc(C(=O)N(C)C)nc(OC)n1"
reported_property = "T/C"
endpoint_result = "108 % of control"

[[record]]
compound = "CS(=O)CCNC(=O)NS(=O)(=O)c1ccc(Cl)cc1 (centres undefined)"
reported_property = "T/C"
endpoint_result = "98 % of control"

[[record]]
compound = "CCCC(=O)Nc1ccc(NS(C)(=O)=O)cc1OC"
reported_property = "T/C"
endpoint_result = "102 % of control"

[[record]]
compound = "CN(C)/C=N/NC(=O)C1CC1"
reported_property = "T/C"
endpoint_result = "97 % of control"

[[record]]
compound = "CN(C)c1ccc2c(c1)Cc1cc(NC(=O)/C=C/C(=O)O)ccc1-2"
reported_property = "T/C"
endpoint_result = "93 % of control"


* * *

Here, each record is paired with measured T/C data.
test system: L1210 leukemia ip in BDF1 mice, survival T/C; assay: NCI In Vivo Anticancer Drug Screen. Data for tumor model L1210 Leukemia (intraperitoneal) in B6D2F1 (BDF1) mice; conditions: endpoint: mean survival time; dose: 50.0 mg/kg/injection; schedule: Q01DX009 (ip); vehicle: saline; higher = longer survival
Inconclusive results and toxic doses are left out.
Reported property: T/C

[[record]]
compound = "CCOC1=CC(=O)CCC1"
study_target = "L1210 leukemia ip in BDF1 mice, survival T/C"
endpoint_result = "98 % of control"

[[record]]
compound = "Cc1cc2cc3c(=O)[nH]c(=O)nc-3n(CC(O)C(O)C(O)COP(=O)(O)O)c2cc1C (centres undefined)"
study_target = "L1210 leukemia ip in BDF1 mice, survival T/C"
endpoint_result = "100 % of control"

[[record]]
compound = "COc1ccc2c(c1)c(C)cc[n+]2C"
study_target = "L1210 leukemia ip in BDF1 mice, survival T/C"
endpoint_result = "124 % of control"

[[record]]
compound = "Cc1cc(Cl)c(C)c(C(=O)O)c1Cl"
study_target = "L1210 leukemia ip in BDF1 mice, survival T/C"
endpoint_result = "107 % of control"

[[record]]
compound = "CCOc1ccc(NC(=O)C(C(C)N2CCCCC2)N2CCCCC2)cc1 (centres undefined)"
study_target = "L1210 leukemia ip in BDF1 mice, survival T/C"
endpoint_result = "91 % of control"

[[record]]
compound = "CCCCC(/C=N\\NC(=O)c1ccc[n+](C)c1)CC (centres undefined)"
study_target = "L1210 leukemia ip in BDF1 mice, survival T/C"
endpoint_result = "103 % of control"

[[record]]
compound = "O=[N+]([O-])c1ccc(C2OC(c3ccncc3)=NC2CO)cc1 (centres undefined)"
study_target = "L1210 leukemia ip in BDF1 mice, survival T/C"
endpoint_result = "96 % of control"

[[record]]
compound = "C1CCN(CN2CCCC2)C1"
study_target = "L1210 leukemia ip in BDF1 mice, survival T/C"
endpoint_result = "92 % of control"

[[record]]
compound = "CC(=O)NN=C(C)C"
study_target = "L1210 leukemia ip in BDF1 mice, survival T/C"
endpoint_result = "111 % of control"

[[record]]
compound = "CC(=O)OC(CC(O)(C(F)(F)F)C(F)(F)F)C(C)(C)C (centres undefined)"
study_target = "L1210 leukemia ip in BDF1 mice, survival T/C"
endpoint_result = "102 % of control"

[[record]]
compound = "CC1(C)N=C(N)N=C(N)N1c1ccc(CCCCc2ccc(S(=O)(=O)F)cc2)cc1"
study_target = "L1210 leukemia ip in BDF1 mice, survival T/C"
endpoint_result = "113 % of control"

[[record]]
compound = "NC(=S)/C(N)=N/Nc1ccc(Cl)cc1"
study_target = "L1210 leukemia ip in BDF1 mice, survival T/C"
endpoint_result = "103 % of control"

[[record]]
compound = "C[N+](C)(Cc1ccc(Cl)cc1)C1c2ccccc2-c2ccccc21"
study_target = "L1210 leukemia ip in BDF1 mice, survival T/C"
endpoint_result = "98 % of control"

[[record]]
compound = "CCN(CC)C(=O)C1C=C2c3cccc4c3c(c(Br)n4C)CC2N(C)C1 (centres undefined)"
study_target = "L1210 leukemia ip in BDF1 mice, survival T/C"
endpoint_result = "112 % of control"


Taken from PubChem BioAssay AID248.
